Cited source: ChEMBL document CHEMBL1201862

# Test system: SF-268
# assay procedure: NCI tumour cell line growth inhibition, 48 h
Active and inactive are the calls of the source. Cut-off read from the data, not from the text of the source: active = GI50 up to about 1.1 µM and inactive = higher.
Outcomes: YES (active), NO (inactive)

[
  {
    "compound": "Cc1ccc(C(c2c(O)c3ccccc3n(-c3ccccc3)c2=O)c2c(O)c3ccccc3n(-c3ccccc3)c2=O)cc1",
    "label": "NO"
  },
  {
    "compound": "CCCCc1ccc(Nc2nc3ncnc-3c[nH]2)cc1",
    "label": "NO"
  },
  {
    "compound": "Clc1ccc2ns[s+]c2c1",
    "label": "NO"
  },
  {
    "compound": "O=C(/C=C1\\Nc2ccccc2C(=O)N1c1ccccc1Cl)c1ccccc1",
    "label": "NO"
  },
  {
    "compound": "COc1cc2c(c(OC)c1OC)-c1ccc(SC)c(=O)cc1[C@@H](NCc1ccccc1[N+](=O)[O-])CC2",
    "label": "YES"
  },
  {
    "compound": "O=C(/C=C(\\Nc1ccccc1O)c1ccc(Br)cc1)C(Cl)(Cl)Cl",
    "label": "NO"
  },
  {
    "compound": "O=c1c2ncn(C3CCCO3)c2n(-c2ccccc2)c(=S)n1-c1ccccc1 (stereo unspecified)",
    "label": "NO"
  },
  {
    "compound": "COC(=O)C(=O)C(C(=O)C(=O)Nc1ccc([N+](=O)[O-])cc1[N+](=O)[O-])c1nc2ccc([N+](=O)[O-])cc2nc1O (stereo unspecified)",
    "label": "NO"
  },
  {
    "compound": "C/C(=N\\Nc1ccc2ccccc2n1)c1ccccc1O",
    "label": "NO"
  },
  {
    "compound": "Cn1c2ccccc2c2cc(-c3ccccc3)c3c(c21)C(=O)c1ccccc1C3=O",
    "label": "NO"
  },
  {
    "compound": "CCOC(=O)C1C=C2O[C@@H]3OC4(CCCCC4)O[C@@H]3C2C2C(=O)CCC(=O)[C@@]12C(=O)OC (stereo partly specified)",
    "label": "NO"
  },
  {
    "compound": "Nc1nc(Cl)cc(NCCO)n1",
    "label": "NO"
  },
  {
    "compound": "O=C(O)Cc1cccc2c(=O)cc(-c3ccccc3)oc12 [MITOFLAXONE]",
    "label": "NO"
  },
  {
    "compound": "COC(=O)c1ccc(/C=C/c2cc(O)ccc2O)cc1",
    "label": "NO"
  },
  {
    "compound": "Cc1ccc2nnc(NS(=O)(=O)c3cc(C)c(Cl)cc3S)n2n1",
    "label": "NO"
  },
  {
    "compound": "O=C(O)CSCc1cccc2ccccc12",
    "label": "NO"
  },
  {
    "compound": "COc1cc2c(cc1OCCCCOc1cc(-c3ccc(F)cc3)nc(C)n1)N=C[C@@H]1CCCN1C2=O",
    "label": "YES"
  },
  {
    "compound": "O=[N+]([O-])c1ccc(Cl)cc1N/N=C/c1cccs1",
    "label": "NO"
  },
  {
    "compound": "COC1=CCC2=C(CCN(C(=O)C3CCC3)C2Cc2ccc(OC)c(O)c2)C1 (stereo unspecified)",
    "label": "NO"
  },
  {
    "compound": "CN1c2ccccc2S(=O)(=O)n2c(COc3ccccc3)nnc21",
    "label": "NO"
  },
  {
    "compound": "CN(C)/C=N/S(=O)(=O)c1nn2c(C=O)c(-c3ccc([N+](=O)[O-])cc3)nc2s1",
    "label": "NO"
  }
]
